Would you mind telling me the reported growth of each entry?
# System: T-47D breast
# assay.name: NCI-60 one-dose screen, 48 h (100 = growth as untreated, 0 = no growth, -100 = all killed)
# condition.label: 10 µM unless noted
Compounds without any hit were thinned out: in the full panel of roughly 83,000, 20% have a hit.
One number for each entry, in %.

Study these solved cases before continuing.
| compound | unit.tag | growth |
| --- | --- | --- |
| COc1ccc(/C=N/Nc2c3ccccc3nc3ccccc23)cc1 | % | 87.5 |
| Nc1ccc(Br)cc1C(F)(F)F | % | 96.7 |

The following compounds each have a reported value; give each one's growth.
1. C=CN(C(=O)N1CCN(c2cc3c(cc2F)c(=O)c(C(=O)O)cn3C2CC2)CC1)c1nc(-c2ccccc2)cs1
2. CN1CC(c2ccc(Br)cc2)C(C(=O)c2ccc(Br)cc2)C12C(=O)Nc1ccccc12 (centres undefined)

-- reply
1. 78.9
2. 49.5

###

# Tested on: NCI-H322M lung
# assay.name: NCI-60 one-dose screen, 48 h (100 = growth as untreated, 0 = no growth, -100 = all killed)
# condition.label: 10 µM unless noted
This is part of a sample that, as a whole, favours compounds with a hit. Of some 83,000 tested, about 20% had one in any assay.
value.type: growth (%)
Answers are plain numbers, in %.

Known growth results, listed for orientation:
| structure.smiles | growth (%) |
| --- | --- |
| FC(F)(F)c1[nH]ncc1-c1nc2ccc3[nH]ncc3c2c2c1CCCC2 | 3.13 |
| O=C(Nc1cccnc1Nc1ccccc1)c1cn(Cc2cccc(Oc3ccccc3)c2)nn1 | 71.8 |
| O=S(=O)(NCCNc1nccc(-c2c(-c3ccc(F)c(O)c3)nc3sccn23)n1)c1ccc(Cl)cc1 | 55.8 |

-- ask // growth lookup, key: `N#C/C(=C\c1ccc(-c2cccc(Cl)c2)o1)C(=O)Nc1ncc(Cc2ccc(Cl)cc2)s1`
-- reply 33.6

###

Can you tell me growth for the items I'm about to list?
# Test system: NCI-H226 lung
# assay.name: NCI-60 one-dose screen, 48 h (100 = growth as untreated, 0 = no growth, -100 = all killed)
# condition.label: 10 µM unless noted
This is part of a sample that, as a whole, favours compounds with a hit. Of some 83,000 tested, about 20% had one in any assay. Active and inactive are the calls of the source. The calls were made as follows: active = growth percent below 10; inactive = the rest.

| compound | growth |
| --- | --- |
| CCN(CC)CCN1C(=O)c2c(c3c4ccccc4[nH]c3c3ccc4ccccc4c23)C1=O | 87.5% (inactive) |

Batch request: growth per item, same order as input.
1. CC(C)NS(=O)(=O)/N=C1\NC(=O)NC1=C(Cl)Cl
2. N#C/C(=C\c1ccc(-c2cccc(Cl)c2)o1)C(=O)Nc1ncc(Cc2ccc(Cl)cc2)s1
3. CCOC(=O)c1cnn(CC(C)O)c1NC(=O)NCc1ccccc1C(F)(F)F (configuration not stated)
4. CNC(=O)c1cc(Oc2ccc3c(c2)sc2nc(-c4ccc(Cl)c(C(F)(F)F)c4)cn23)ccn1

-- reply
1: 95.3% (inactive); 2: 74% (inactive); 3: 104% (inactive); 4: 52.6% (inactive)

Fill in growth for each of the 8 compounds listed.
1. Cn1cc(-c2csc(-c3cn(C)c4ccccc34)n2)c2cnccc21
2. Cc1[nH]n(-c2cccc(Cl)c2)c(=O)c1/C=C1\C=c2ccccc2=CC1=O
3. CC1(C)CC[C@]23CC[C@]4(C)[C@H](CC[C@@H]5[C@@]6(C)C/C(=C/O)C(=O)C(C)(C)[C@@H]6CC[C@]54C)[C@H]2[C@H]1OC3
4. O=C(Nc1cc(Cl)ccc1O)c1ccccc1Nc1ccnc(C(F)(F)F)c1
5. Nc1cc(-c2ccc(Cl)cc2)nn1-c1nnc(/C=C/c2ccco2)c(=O)[nH]1
6. CC1=C2CC/C(C)=C/CC[C@]3(C)O[C@H]3CC/C(C)=C/[C@H]2OC1
7. C=C(C)[C@@H]1CC[C@]2(CO)CC[C@]3(C)[C@H](CC[C@@H]4[C@@](C)(CCCN)[C@H](C(=C)C)CC[C@]43C)[C@@H]12
8. CN(C)c1ccc([C@@H](C(=O)Nc2cccc([N+](=O)[O-])c2)N(C(=O)c2cc3ccccc3[nH]2)c2cccc([N+](=O)[O-])c2)cc1

-- reply
112% (inactive)
1.04% (active)
105% (inactive)
50.9% (inactive)
47.4% (inactive)
109% (inactive)
13.1% (inactive)
97.5% (inactive)

Each compound below has a recorded value; state its growth.
1. CN(C)CCCn1c2c(c3ccncc3c1=O)C(=O)c1ccccc1-2
2. CS(=O)(=O)Nc1cc(-c2ccc3ncnc(Nc4ccc(F)c(Cl)c4)c3c2)ccc1Cl

-- reply
-53.1% (active)
70.1% (inactive)

Working through the 2 compounds below one at a time, give growth for each.
1. CCCCCCCCn1ccc2cc(NC(=O)CN=[N+]=[N-])ccc21
2. CC1(C)N=C(N)N=C(N)N1c1cc(Cl)ccc1Cl

-- reply
1. 95.4% (inactive)
2. 94.3% (inactive)

State the recorded growth for every item in the following list.
1. Cc1cc(=O)n(C(=S)Nc2ccc(Cl)cc2)c2cc(O)ccc12
2. CS(=O)(=O)Nc1cc(-c2ccc3ncnc(Nc4ccc5c(cnn5Cc5ccccc5F)c4)c3c2)cnc1Cl
3. Cc1c2cnccc2c(C)c2c1c1cc(CO)ccc1n2C
4. COc1ccc(-c2cc(-c3cc(OC)ccc3OC)nc(SCC(C)=O)c2C#N)cc1
5. CS(=O)(=O)Nc1cc(-c2ccc3ncnc(Nc4ccc(OCc5ccccn5)c(Cl)c4)c3c2)cnc1Cl
6. CC(O)CNC(Cc1ccccc1)c1ccc2c(c1)OCO2 (configuration not stated)
7. c1cc(OCCN2CCCCCC2)ccc1CNc1ccc2nc(CCC3CCCCC3)[nH]c2c1
8. COc1ccc(C2C3=C(COC3=O)N(CCO)c3cc4c(cc32)OCO4)cc1OC (configuration not stated)

-- reply
["80.5% (inactive)", "66.7% (inactive)", "-68.5% (active)", "83.4% (inactive)", "21.2% (inactive)", "90% (inactive)", "60.8% (inactive)", "115% (inactive)"]

State recorded growth for all listed compounds.
1. CN1C(=O)N2CN3CCCN(C3)CN3C(=S)NC1C23 (configuration not stated)
2. Cc1ccc(Cc2cnc(NC(=O)/C=C/c3ccc(C)o3)s2)cc1

-- reply
["99.6% (inactive)", "69.9% (inactive)"]

Give measured growth for every item shown.
1. CN(C)c1ccc(CNCCO)cc1
2. C=C1C(=O)O[C@H]2[C@H]1CC/C(COC(=O)/C=C\C(=O)NCc1ccc(Cn3c(=O)sn(CCCCl)c3=O)cc1)=C\CC[C@@]1(C)O[C@@H]21
3. C/C(=N\Nc1ccccc1)c1ccc(NC2=CC(=O)c3ccccc3C2=O)cc1
4. COc1ccc(/C=N/Nc2c3ccccc3nc3ccccc23)cc1

-- reply
91.9% (inactive)
92.9% (inactive)
80.8% (inactive)
83.4% (inactive)

-- ask Which growth is listed for CCOC(=O)c1cnn(CC(C)O)c1NC(=O)NCc1cccc(F)c1 (configuration not stated) ?
-- reply 103% (inactive)

###

# System: T-47D breast
# assay.name: NCI-60 one-dose screen, 48 h
# condition.label: 10 µM unless noted
# Experimental: Growth inhibition of the T-47D human tumor cell line is measured as a screen for anti-cancer activity. Cells are grown in 96 well plates and exposed to the test compound for 48 hours. Compounds are tested at a single concentration, which is 10^-5 M for most compounds. The reported endpoint is percent growth (GI% or GIPRCNT), where numbers from 0 - 100% represent growth inhibition, and numbers from -100% - 0 represent cell death. For example, a value of 40 represents 60% growth inhibition. […]
About 83,000 compounds went through this panel and 20% of them were active in at least one assay; those are over-represented in the sample as a whole. Active and inactive are the calls of the source. How the source made its calls: active means growth percent below 10; inactive means the rest.
Thanks in advance; please answer with one of these: active, inactive

| structure.smiles | assigned.class |
| --- | --- |
| O=C(NNc1nc2cc(F)ccc2n2c(CN3CCOCC3)ccc12)c1ccccc1 | inactive |
| CCOC(=O)/C=C1\S/C(=N\Nc2cc(=O)[nH]c3ccc(Br)cc23)N(c2ccccc2)C1=O | active |
| Cc1ccc(S(=O)(=O)OCC#CCOS(=O)(=O)c2ccc(C)cc2)cc1 | active |
| O=C(Oc1ccc2c(c1)sc1nc(-c3ccccc3)[nH]c(=O)c12)C(F)(F)F | inactive |
| CCN(CCNc1ccc(C)c2sc3cc(Cl)ccc3c(=O)c12)CC(C)(C)O | inactive |

Continue with the compound presented below.
-- ask Kindly provide the recorded test outcome for the following compound: `C=C(C)[C@@H]1CC[C@]2(C(=O)N3CCN(C)CC3)CC[C@]3(C)[C@H](CC[C@@H]4[C@@](C)(CCC(=O)O)[C@H](C(=C)C)CC[C@]43C)[C@@H]12`
-- reply inactive
